experimental_system: T1, IL-1β (UniProt P01584 117-269)
T1 construct: Antigen of XPA23
assay_remarks: Biacore, Fab periplasmic extract; -1 = no binding by the table's footnote
measured_property: binding result

XPA23 heavy chain I51P (Fab, V domains shown, Fab, periplasmic extract; also called C5A I51P) VH: EVQLLESGGGLVQPGGSLRLSCAASGFTFSKYFMFWVRQAPGKGLEWVSVPSPSGGMTRYADSVKGRFTISRDNSKNTLYLQMNSLRAEDTAVYYCARVGYGGNSDYWGQGTLVTVSS VL: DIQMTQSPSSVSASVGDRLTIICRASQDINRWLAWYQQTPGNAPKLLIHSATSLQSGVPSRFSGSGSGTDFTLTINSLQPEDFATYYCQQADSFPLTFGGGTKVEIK    no binding
XPA23 heavy chain S52L (Fab, V domains shown, Fab, periplasmic extract; also called C5A S52L) VH: EVQLLESGGGLVQPGGSLRLSCAASGFTFSKYFMFWVRQAPGKGLEWVSVILPSGGMTRYADSVKGRFTISRDNSKNTLYLQMNSLRAEDTAVYYCARVGYGGNSDYWGQGTLVTVSS VL: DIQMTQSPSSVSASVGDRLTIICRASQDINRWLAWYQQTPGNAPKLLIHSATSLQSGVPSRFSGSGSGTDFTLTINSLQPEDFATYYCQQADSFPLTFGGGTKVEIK    no binding

These entries and their values trace back to patent US20110118131A1.
